Overview of reported inhibition at 0.1 µM across a group of compounds:
target: mu receptor (Rattus norvegicus, UniProt P33535); construct: rat whole brain minus cerebellum for mu was homogenized; from tissue; host or cells: brain of male Sprague Dawley rats, whole brain minus cerebellum, homogenate fraction; assay: opioid receptor binding assay, [3H] NAL (tritiated naloxone), mu receptor; design: species or system rat (Male Sprague Dawley), brain minus cerebellum; conditions: 20 min, read-out: % displacement at 100 nM, 100 nM test compound; [3H] naloxone 0.5 nM
Sequence (P33535 whole entry): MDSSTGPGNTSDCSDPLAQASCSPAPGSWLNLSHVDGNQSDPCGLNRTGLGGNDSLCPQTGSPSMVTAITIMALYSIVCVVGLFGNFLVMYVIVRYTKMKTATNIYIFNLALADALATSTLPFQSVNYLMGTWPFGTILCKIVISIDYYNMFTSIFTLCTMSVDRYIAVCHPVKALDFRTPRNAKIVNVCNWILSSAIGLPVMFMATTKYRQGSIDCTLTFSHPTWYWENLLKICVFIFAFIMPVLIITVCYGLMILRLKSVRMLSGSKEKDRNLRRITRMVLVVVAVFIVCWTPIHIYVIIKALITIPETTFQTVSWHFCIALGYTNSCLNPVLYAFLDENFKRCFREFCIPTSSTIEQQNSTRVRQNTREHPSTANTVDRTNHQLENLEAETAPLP
Where a name gives a salt, the structure may show the parent alone.
Provide the reading as a plain figure in %.

Some compounds with recorded inhibition at 0.1 µM:
| compound | inhibition at 0.1 µM (%) |
| --- | --- |
| C[C@H]1CN(CCC(C(=O)NCC(=O)O)C2CCCCC2)CC[C@@]1(C)c1cccc(O)c1 (relative stereo) [Example 27, monohydrate] | 99 |
| CCOC(=O)CCNC(=O)C(CC1CCCCC1)CN1CC[C@@](C)(c2cccc(O)c2)[C@@H](C)C1 (stereo partly drawn) [Example 36, monohydrochloride] | 86 |
| CCOC(=O)CCCNC(=O)C(Cc1ccccc1)CN1CC[C@@](C)(c2cccc(O)c2)[C@@H](C)C1 (stereo partly drawn) [Example 61, monohydrochloride monohydrate] | 99 |

**Q:** State, in one line, measured inhibition at 0.1 µM of CCNC(=O)CNC(=O)CNC(=O)C(Cc1ccccc1)CN1CC[C@@](C)(c2cccc(O)c2)[C@@H](C)C1 (relative stereo)
**A:** 95

**Q:** State, in one line, measured inhibition at 0.1 µM of CC(C)COC(=O)CNC(=O)C(Cc1ccccc1)CN1CC[C@](C)(c2cccc(O)c2)[C@H](C)C1 (single isomer, unassigned) [Example 98D]
**A:** 92

**Q:** State, in one line, measured inhibition at 0.1 µM of C[C@H]1CN(CC(CC2CCCCC2)C(=O)O)CC[C@@]1(C)c1cccc(O)c1 (relative stereo) [Example 5B, monohydrate]
**A:** 99
